tested on: Escherichia coli IAI1; assay: growth (OD595) fold change vs plate DMSO controls (fold change (ratio)); higher = more growth; conditions: incubation time: 27 h, anaerobic, 37 °C
Where a name gives a salt, the structure may show the parent alone.
Output Yes for growth not less than 1; output No otherwise.

>  <compound>
CCCC(=O)OCOC(=O)C1=C(C)NC(C)=C(C(=O)OC)C1c1cccc(Cl)c1Cl (stereo not drawn) [Clevidipine] (20 µM)

>  <discreteLabel>
Yes

$$$$

Query :: I'd appreciate it if you could say whether CCN(CC)CCCC(C)Nc1ccnc2cc(Cl)ccc12 (stereo not drawn) [Chloroquine diphosphate] (20 µM) has growth at least equal to 1.
Result :: No

Query :: Tell me whether growth is at least 1 here: CN(C)c1ccc(O)c2c1C[C@H]1C[C@H]3[C@H](N(C)C)C(=O)C(C(N)=O)=C(O)[C@@]3(O)C(=O)C1=C2O [Minocycline hydrochloride] (20 µM)
Result :: No

Query :: Could you please find out whether CCc1oc2ccccc2c1C(=O)c1cc(Br)c(O)c(Br)c1 [Benzbromarone] (20 µM) has growth that meets 1 or exceeds it?
Result :: No

Query :: Check the entry Clc1ccc(C(c2ccccc2Cl)C(Cl)Cl)cc1 (stereo not drawn) [Mitotane] (20 µM) : does growth equal or exceed 1?
Result :: Yes
